Here the recorded DR/DR AA is given for each entry.
assay: Probe fluorescence ratio response to arachidonate:BSA complex, relative to ADIFAB2 (ΔR/ΔRAD2); assay type: binding; details: arachidonate (AA); response relative to ADIFAB2
Form field (numeric): enter value without unit.

Below: 5 molecules and their reported DR/DR AA.
INSERT INTO measurements (molecule, numeric_value) VALUES
  ('47G1, L72A (protein, UniProt P02693 2-132, looked up, variant F47G L72A, acrylodan label) Fatty acid-binding protein, …: AFDGTWKVDRNENYEKFMEKMGINVVKRKLGAHDNLKLTITQEGNKGTVKESSNFRNIDVVFELGVDFAYSAADGTELTGTWTMEGNKLVGKFKRVDNGKELIAVREISGNELIQTYTYEGVEAKRIFKKE', 0.51),
  ('47M2, L72A (protein, UniProt P02693 2-132, looked up, variant F47M L72A, acrylodan label) Fatty acid-binding protein, …: AFDGTWKVDRNENYEKFMEKMGINVVKRKLGAHDNLKLTITQEGNKMTVKESSNFRNIDVVFELGVDFAYSAADGTELTGTWTMEGNKLVGKFKRVDNGKELIAVREISGNELIQTYTYEGVEAKRIFKKE', 1.00),
  ('40F2, L72A (protein, UniProt P02693 2-132, looked up, variant I40F L72A, acrylodan label) Fatty acid-binding protein, …: AFDGTWKVDRNENYEKFMEKMGINVVKRKLGAHDNLKLTFTQEGNKFTVKESSNFRNIDVVFELGVDFAYSAADGTELTGTWTMEGNKLVGKFKRVDNGKELIAVREISGNELIQTYTYEGVEAKRIFKKE', 0.89),
  ('11S5, L72A (protein, UniProt P02693 2-132, looked up, variant N11S L72A, acrylodan label) Fatty acid-binding protein, …: AFDGTWKVDRSENYEKFMEKMGINVVKRKLGAHDNLKLTITQEGNKFTVKESSNFRNIDVVFELGVDFAYSAADGTELTGTWTMEGNKLVGKFKRVDNGKELIAVREISGNELIQTYTYEGVEAKRIFKKE', 0.33),
  ('40V1, L72A (protein, UniProt P02693 2-132, looked up, variant I40V L72A, acrylodan label) Fatty acid-binding protein, …: AFDGTWKVDRNENYEKFMEKMGINVVKRKLGAHDNLKLTVTQEGNKFTVKESSNFRNIDVVFELGVDFAYSAADGTELTGTWTMEGNKLVGKFKRVDNGKELIAVREISGNELIQTYTYEGVEAKRIFKKE', 1.20);

Reported DR/DR AA for 47H1, L72A (protein, UniProt P02693 2-132, looked up, variant F47H L72A, acrylodan label) Fatty acid-binding protein, …: AFDGTWKVDRNENYEKFMEKMGINVVKRKLGAHDNLKLTITQEGNKHTVKESSNFRNIDVVFELGVDFAYSAADGTELTGTWTMEGNKLVGKFKRVDNGKELIAVREISGNELIQTYTYEGVEAKRIFKKE was 0.63

According to the records, this molecule 11F1, L72A (protein, UniProt P02693 2-132, looked up, variant N11F L72A, acrylodan label) Fatty acid-binding protein, …: AFDGTWKVDRFENYEKFMEKMGINVVKRKLGAHDNLKLTITQEGNKFTVKESSNFRNIDVVFELGVDFAYSAADGTELTGTWTMEGNKLVGKFKRVDNGKELIAVREISGNELIQTYTYEGVEAKRIFKKE displays DR/DR AA of 0.42

# credit: patent US20050244864A1
